# Test system: wild type soybean
# method_description: Greenhouse postemergence test of ALS-inhibiting herbicides, wild type soybean
# Format: in vivo
# run_parameters: 70 g ai/ha postemergence at V2, scored 14 days after application
measured_property: Soybean response (percent phytotoxicity), Wild type (%)

compound	measured
Cc1cc(C)nc(NC(=O)NS(=O)(=O)c2ccccc2C(=O)O)n1	98
CCc1cnc(C2=NC(C)(C(C)C)C(=O)N2)c(C(=O)O)c1 (centres unmarked)	0
CC(C)C1(C)N=C(c2ncccc2C(=O)O)NC1=O (centres unmarked)	90
COc1cc(Cl)nc(NC(=O)NS(=O)(=O)c2ccccc2C(=O)O)n1	35
COc1nn(C(=O)NS(=O)(=O)c2ccccc2OC(F)(F)F)c(=O)n1C	90
COc1cc(OC)nc(Sc2cccc(Cl)c2C(=O)O)n1 [Pyrithiobac sodium]	95
COc1nc(C)nc(NC(=O)NS(=O)(=O)c2ccsc2C(=O)O)n1	45
COc1cc(OC)nc(NC(=O)NS(=O)(=O)c2ncccc2C(=O)N(C)C)n1	20
CCOc1nc(F)cc2nc(S(=O)(=O)Nc3c(Cl)cccc3C(=O)OC)nn12	5
COc1nc(C)nc(N(C)C(=O)NS(=O)(=O)c2ccccc2C(=O)O)n1	98
CCS(=O)(=O)c1cccnc1S(=O)(=O)NC(=O)Nc1nc(OC)cc(OC)n1	95

---

# Tested on: wild type soybean
# method_description: Greenhouse postemergence test of ALS-inhibiting herbicides, wild type soybean
# Type: in vivo
# run_parameters: 35 g ai/ha postemergence at V2, scored 14 days after application
measured_property: Soybean response (percent phytotoxicity), Wild type

compound	measured
COc1nc(C)nc(N(C)C(=O)NS(=O)(=O)c2ccccc2C(=O)O)n1 [Tribenuron]	98%
COc1nn(C(=O)NS(=O)(=O)c2ccccc2OC(F)(F)F)c(=O)n1C [Flucarbazone]	80%
COc1nc(C)nc(NC(=O)NS(=O)(=O)c2ccsc2C(=O)O)n1 [Thifensulfuron]	25%
COc1cc(Cl)nc(NC(=O)NS(=O)(=O)c2ccccc2C(=O)O)n1 [Chlorimuron]	20%
COc1cc(OC)nc(NC(=O)NS(=O)(=O)c2ncccc2C(=O)N(C)C)n1 [Nicosulfuron]	10%
CCS(=O)(=O)c1cccnc1S(=O)(=O)NC(=O)Nc1nc(OC)cc(OC)n1 [Rimsulfuron]	85%
COc1cc(OC)nc(Sc2cccc(Cl)c2C(=O)O)n1 [Pyrithiobac sodium]	70%
Cc1cc(C)nc(NC(=O)NS(=O)(=O)c2ccccc2C(=O)O)n1 [Sulfometuron]	98%
CCOc1nc(F)cc2nc(S(=O)(=O)Nc3c(Cl)cccc3C(=O)OC)nn12 [Cloransulam methyl]	0%
CCc1cnc(C2=NC(C)(C(C)C)C(=O)N2)c(C(=O)O)c1 (centres unmarked) [Imazethapyr]	0%
CC(C)C1(C)N=C(c2ncccc2C(=O)O)NC1=O (centres unmarked) [Imazapyr]	75%

---

# System: soybean having both the Als1 and Als2 mutations
# method_description: Greenhouse postemergence test of ALS-inhibiting herbicides and isobole analysis, soybean with Als1 and Als2 mutations
# Format: in vivo
# run_parameters: 70 g ai/ha, Table 2
The following compounds are listed with their measured Avg response (% phytotoxicity), Trait Als1 + Als2 values.
measured_property: Avg response (% phytotoxicity), Trait Als1 + Als2

compound	assayed_system	measured
CCc1cnc(C2=NC(C)(C(C)C)C(=O)N2)c(C(=O)O)c1 (centres unmarked)	soybean having both the Als1 and Als2 mutations	0%
CC(C)C1(C)N=C(c2ncccc2C(=O)O)NC1=O (centres unmarked)	soybean having both the Als1 and Als2 mutations	40%
COc1nc(C)nc(N(C)C(=O)NS(=O)(=O)c2ccccc2C(=O)O)n1	soybean having both the Als1 and Als2 mutations	0%
COc1cc(OC)nc(Sc2cccc(Cl)c2C(=O)O)n1 [Pyrithiobac sodium]	soybean having both the Als1 and Als2 mutations	5%
Cc1cc(C)nc(NC(=O)NS(=O)(=O)c2ccccc2C(=O)O)n1	soybean having both the Als1 and Als2 mutations	5%
COc1cc(OC)nc(NC(=O)NS(=O)(=O)c2ncccc2C(=O)N(C)C)n1	soybean having both the Als1 and Als2 mutations	0%
CCS(=O)(=O)c1cccnc1S(=O)(=O)NC(=O)Nc1nc(OC)cc(OC)n1	soybean having both the Als1 and Als2 mutations	10%
COc1nn(C(=O)NS(=O)(=O)c2ccccc2OC(F)(F)F)c(=O)n1C	soybean having both the Als1 and Als2 mutations	0%
